The reported numbers originate from patent US11718628B2.

assay: In vivo pharmacokinetic properties in rats (IV and PO); set-up: species or system male Sprague Dawley rats; conditions: male, Sprague Dawley, rat, plasma, PO, 10 mg/kg, read-out: Oral Administration (PO) T1/2 (converted)
Measured half-life by item
assay-readout: half-life (h)

CC(C)(C)c1cc(-c2cncc(-c3ccc(NS(C)(=O)=O)cc3Cl)c2)ccn1 [Compound Z-803]	4.37
CC(C)(O)c1cc(-c2cncc(-c3ccc(C(=O)N4CCC(O)CC4)cc3Cl)c2)ccn1 [Compound Z-796]	3.22
CC(C)(C)c1cc(-c2cncc(-c3ccc(C(=O)N4CCC(O)CC4)cc3)c2F)ccn1 [Compound Z-866]	0.69
O=C(c1ccc(-c2cncc(-c3ccnc4c3OCCO4)c2)c(Cl)c1)N1CCC(O)CC1 [Compound Z-806]	2.5

###

experiment: In vivo pharmacokinetic properties in rats (IV and PO); set-up: species or system male Sprague Dawley rats; settings: IV, 2 mg/kg
assay-readout: Intravenous Delivery (IV) Vd

CC(C)(C)c1cc(-c2cccc(-c3ccc(C(=O)N4CCC(O)CC4)cc3Cl)c2)ccn1 [Compound Z-744]	2.16 L/kg
CC(C)OC(=O)Nc1ccc(-c2cncc(-c3ccnc(C(C)(C)C)c3)c2)c(Cl)c1 [Compound Z-774]	7.97 L/kg
CC(C)(C)c1cc(-c2cncc(-c3ccc(C(=O)N4CCC(O)CC4)cc3Cl)c2)ccn1 [Compound Z-725]	4.02 L/kg
Cc1cc(C(=O)N2CCC(O)CC2)ccc1-c1cncc(-c2ccnc(C(C)(C)C)c2)c1 [Compound Z-817]	1.41 L/kg
CC1(O)CCN(C(=O)c2ccc(-c3cncc(-c4ccnc(C(C)(C)C)c4)c3)c(Cl)c2)CC1 [Compound Z-780]	1.64 L/kg
CC(C)(C)c1cc(-c2cncc(-c3c(Cl)cc(C(=O)N4CCC(O)CC4)cc3Cl)c2)ccn1 [Z-826]	2.97 L/kg

###

assay: In vivo pharmacokinetic properties in mice (IV and PO); set-up: species or system C57BL/6J mice; conditions: mouse, in vivo, iv, 2 mg/kg
assay-readout: Intravenous Delivery (IV) Vd (L/kg)

CC(C)OC(=O)Nc1ccc(-c2cncc(-c3ccnc(C(C)(C)C)c3)c2)c(Cl)c1 [Compound Z-774]	8.51
CC(C)(C)c1cc(-c2cncc(-c3ccc(C(=O)N4CCC(O)CC4)cc3Cl)c2)ccn1 [Compound Z-725]	5.13
CC(C)(C)c1cc(-c2cncc(-c3c(Cl)cc(C(=O)N4CCC(O)CC4)cc3Cl)c2)ccn1 [Z-826]	2.37
CC1(O)CCN(C(=O)c2ccc(-c3cncc(-c4ccnc(C(C)(C)C)c4)c3)c(Cl)c2)CC1 [Compound Z-780]	6.33

###

test: In vivo pharmacokinetic properties in rats (IV and PO); design: species or system male Sprague Dawley rats; settings: PO, 10 mg/kg
Measured Oral Administration (PO) T1/2 by item
assay-readout: Oral Administration (PO) T1/2 (h)

CC(C)(C)c1cc(-c2cncc(-c3c(Cl)cc(C(=O)N4CCC(O)CC4)cc3Cl)c2)ccn1	3.05
CC1(O)CCN(C(=O)c2ccc(-c3cncc(-c4ccnc(C(C)(C)C)c4)c3)c(Cl)c2)CC1	0.92
CC(C)OC(=O)Nc1ccc(-c2cncc(-c3ccnc(C(C)(C)C)c3)c2)c(Cl)c1	3.74
CC(C)(C)c1cc(-c2cncc(-c3ccc(C(=O)N4CCC(O)CC4)cc3Cl)c2)ccn1	5.1
CC(C)(C)c1cc(-c2cccc(-c3ccc(C(=O)N4CCC(O)CC4)cc3Cl)c2)ccn1	2.35
Cc1cc(C(=O)N2CCC(O)CC2)ccc1-c1cncc(-c2ccnc(C(C)(C)C)c2)c1	2.56
